tested on: MS2 coat protein; assay: apparent KD of MS2 coat protein; designed switch direction (-1 OFF switch, 1 ON switch): -1; higher = weaker reporter binding; conditions: input ligand: FMN 200 uM
Hi, to clarify the labels: y covers apparent KD of MS2 coat protein from 0.02 µM upward, n covers anything below 0.02 µM.

item_sequence="CCGGUUCAUUAGGAUAUGCAGGUGAACGGUGCCGUAGAAGGAAUGACAUGAGGAUCACCCAUGUAGAGGAAGUG [Eternabot (L2) Solution 82] (Eterna round: R97, puzzle: Exclusion 6)" category_label=y
item_sequence="UUAGUGUUAGGAUAUAAUCAUAUAAGCUGUAAGGUGUAUGAUUAGAAGGGACAUGAGGAUCACCCAUGUCGUGA [Eternabot (L1) Solution 94] (Eterna round: R97, puzzle: Exclusion 4)" category_label=y
item_sequence="UUUAGUUCAGGAUAUGAUGAAUUAAACAUGAGGAUCACCCAUGUAGAUCCUGAAUUAACAUCAGAAGGGAAUAUUU [JL-ex5-4.47 Brourd mod] (Eterna round: R97, puzzle: Exclusion 5)" category_label=n
item_sequence="UGAUCACAUGAGGAUCACCCAUGUCAGGAUAUCUACAUUGAAGCCUCGGCUUCAAUGUAGAGAAGGGACAUAAU [E1/3-B2] (Eterna round: R97, puzzle: Exclusion 1)" category_label=y
item_sequence="UAUUUAAUUAACAAGCUUUACAUGAGGAUCACCCAUGUGAUCAUGCUCGUCUUAGGUACAGGCUUCGGCCUGUACCA [Stov1/6-B2] (Eterna round: R97, puzzle: Sensor, turn-off variant 1)" category_label=y

----------
tested on: MS2 coat protein; test: apparent KD of MS2 coat protein; designed switch direction (-1 OFF switch, 1 ON switch): -1; higher = weaker reporter binding; settings: input ligand: microRNA oligo, concentration not stated
In this section, each of the sequences is paired with its reported apparent KD of MS2 coat protein.
property_measured: apparent KD of MS2 coat protein (nM)

item_sequence="AUGGGUACUUUCGGAGCGACAUGAGGAUCACCCAUGUAUGUUGAGGAUAUCCACUGCUAAGGACGGGAGAAGGCAGUGUACUGU [Ex NG3 #83] (Eterna round: R96, puzzle: Exclusion NG 3)" u=nM val=16
item_sequence="CUGCUCCGUGUAGGAUAUCCGUGCAACCAAUACGGAGAAGGACAUGAGGAUCACCCAUGUAUGUUAUUAUCACGUGAAGCGUCC [Design 24] (Eterna round: R96, puzzle: Exclusion NG 1)" u=nM val=17
item_sequence="AGUACUAACACGGUUGUGUUAGUACAAUAAGCUUGUGAAACAUGAGGAUCACCCAUGUCCUCAUAAGCUCGUCUUAU [salish99_TOv2_r3_070] (Eterna round: R96, puzzle: Sensor v3, turn-off variant 2)" u=nM val=464
item_sequence="GCAGCAAACCCAAUUAAAACCACAUGAGGAUCACCCAUGUCUCAGGAUAUGGUCUGGAUUACAGGCCAGAAGGGAGAAAGCUGC [Eli exng3 - 052] (Eterna round: R96, puzzle: Exclusion NG 3)" u=nM val=10.7
item_sequence="AAAGGACGAUUAGGAUAUUCGGUUCAAGGUAAAGAAGAAGGAAUCGUUCCAUACUUAACAUGAGGAUCACCCAUGUGGGUCUAG [Eternabot solution 38] (Eterna round: R96, puzzle: Exclusion NG 1)" u=nM val=25.5
item_sequence="CCUGGGUCAUCUCCCAGGAACAACAUGAGGAUCACCCAUGUCUAGGAUAUCCACCAGUCAAUAAAGGAGAAGGAGACGGUGGUU [Onlaxe] (Eterna round: R96, puzzle: Exclusion NG 3)" u=nM val=14.6
item_sequence="GCACGGAGUGUAGGAUAUCUGUGCGAUUAGCUCAGAGAAGGACACAUGAGGAUCACCCAUGUGUAACAACACAAUAAUCCGUGC [Eli exng1 - 072] (Eterna round: R96, puzzle: Exclusion NG 1)" u=nM val=11.2
item_sequence="AGCUGUGGCCGAGGAUAUCUGUUUCAUAAAACCGAAAUAUAAUCGGACAUGAGGAUCACCCAUGUAGAGAAGGCGGUCUCAGCA [Eli eng2 - 097] (Eterna round: R96, puzzle: Exclusion NG 2)" u=nM val=12
item_sequence="GCGGACUUGAUCGUGAGAUCAGAGACAUGAGGAUCACCCAUGUAGGAUAUCGAUUCGUUUCGAAUCGAGAAGGGCGUGGUCCGC [JL denovo 15] (Eterna round: R96, puzzle: Exclusion NG 3)" u=nM val=52.2
